Numbers sourced from BindingDB's records for doi:10.1016/j.bmcl.2009.11.072.

test: Antagonist activity at human recombinant CCR5 by cell-cell fusion assay
pIC50: −log10 of the molar value.
Classification field: enter 1.0 for pIC50 values not below 7, 0.0 for values below it.

Recorded results for 2 compounds are shown here.
Cc1ncnc(C)c1C(=O)N1C[C@H]2CN(CCC3(c4cccc(F)c4)CCN(C(=O)C(C)(C)CO)CC3)C[C@H]2C1    0.0
Cc1ncnc(C)c1C(=O)N1C[C@H]2CN(CCC3(c4ccccc4)CN(S(=O)(=O)C4CCCC4)C3)C[C@H]2C1    0.0

Could you please find out whether Cc1ncnc(C)c1C(=O)N1C[C@H]2CN(CCC3(c4ccccc4)CCN(C(=O)C(C)(C)C)C3)C[C@H]2C1 (stereo partly specified) has pIC50 that meets 7 or exceeds it?
0.0

Could you do the same for Cc1nc(C(F)(F)F)nc(C)c1C(=O)N1C[C@H]2CN(CCC3(c4ccccc4)CN(C(=O)C4CCC(F)(F)CC4)C3)C[C@H]2C1 , please?
1.0

Could you do the same for Cc1cc(C(F)(F)F)nc(C)c1C(=O)N1C[C@H]2CN(CCC3(c4ccccc4)CN(C(=O)C4CCC(F)(F)CC4)C3)C[C@H]2C1 , please?
1.0

Could you do the same for Cc1cc(C#N)nc(C)c1C(=O)N1C[C@H]2CN(CCC3(c4ccccc4)CN(C(=O)C4CC(F)(F)C4)C3)C[C@H]2C1 , please?
1.0

Could you do the same for Cc1cc(C#N)nc(C)c1C(=O)N1C[C@H]2CN(CCC3(c4ccccc4)CCN(C(=O)C(C)(C)C)C3)C[C@H]2C1 (stereo partly specified) , please?
0.0

Could you do the same for Cc1nc(C(F)(F)F)nc(C)c1C(=O)N1C[C@H]2CN(CCC3(c4ccccc4)CN(C(=O)C4CC(F)(F)C4)C3)C[C@H]2C1 , please?
0.0

Could you do the same for Cc1ncnc(C)c1C(=O)N1C[C@H]2CN(CCC3(c4ccccc4)CN(C(=O)C(C)(C)C)C3)C[C@H]2C1 , please?
0.0

Could you do the same for Cc1ncnc(C)c1C(=O)N1C[C@H]2CN(CCC3(c4ccccc4)CN(C(=O)C4CCOC4)C3)C[C@H]2C1 (stereo partly specified) , please?
0.0

Could you do the same for Cc1ncnc(C)c1C(=O)N1C[C@H]2CN(CCC3(c4ccccc4)CN(C(=O)C(C)(C)CO)C3)C[C@H]2C1 , please?
0.0

Could you do the same for Cc1ccnc(C)c1C(=O)N1C[C@H]2CN(CCC3(c4ccccc4)CN(C(=O)C4CCC(F)(F)CC4)C3)C[C@H]2C1 , please?
1.0

Could you do the same for Cc1ncnc(C)c1C(=O)N1C[C@H]2CN(CCC3(c4cccc(F)c4)CCN(C(=O)CC(C)(C)C)CC3)C[C@H]2C1 , please?
0.0

----------
experiment: Antagonist activity at human recombinant CCR5 by cell-cell fusion assay
Please provide measured pIC50 for the entries that follow.
Numbers only, as −log10 of the molar value.

Here's what some known entries look like.
Cc1nc(C(F)(F)F)nc(C)c1C(=O)N1C[C@H]2CN(CCC3(c4ccccc4)CN(C(=O)C4CCOC4)C3)C[C@H]2C1 (some centres not stated)    7.04
Cc1cc(C(F)(F)F)nc(C)c1C(=O)N1C[C@H]2CN(CCC3(c4ccccc4)CN(C(=O)C4CC(F)(F)C4)C3)C[C@H]2C1    8.52
Cc1ncnc(C)c1C(=O)N1C[C@H]2CN(CCC3(c4cccc(F)c4)CCN(C(=O)C(C)(C)C)CC3)C[C@H]2C1    6.89

Each molecule below has a reported value. Please supply its pIC50.
1. Cc1ncnc(C)c1C(=O)N1C[C@H]2CN(CCC3(c4ccccc4)CN(C(=O)C4CC(F)(F)C4)C3)C[C@H]2C1
2. Cc1cc(C#N)nc(C)c1C(=O)N1C[C@H]2CN(CCC3(c4cccc(F)c4)CCN(C(=O)C(C)(C)C)CC3)C[C@H]2C1
3. Cc1ncnc(C)c1C(=O)N1C[C@H]2CN(CCC3(c4ccccc4)CN(C(=O)C4CCC(F)(F)CC4)C3)C[C@H]2C1

1: 7.03; 2: 7.43; 3: 8.00

----------
assay: Antagonist activity at human recombinant CCR5 by cell-cell fusion assay
reported.property: pIC50
One number for each entry, as −log10 of the molar value.

Here's what some known entries look like.
Cc1ncnc(C)c1C(=O)N1C[C@H]2CN(CCC3(c4ccccc4)CN(C(=O)CC4CCCC4)C3)C[C@H]2C1    6.87
Cc1ncnc(C)c1C(=O)N1C[C@H]2CN(CCC3(c4cccc(F)c4)CCN(C(=O)C(C)C)CC3)C[C@H]2C1    6.80

Moving on to the next compound.
Give the measured pIC50 of Cc1cc(C#N)nc(C)c1C(=O)N1C[C@H]2CN(CCC3(c4ccccc4)CCN(C(=O)C4CCCC4)C3)C[C@H]2C1 (stereo partly drawn) .
7.07
